Source listed as patent US6569903B2.

Listed below: Rate of increase in tear protein concentration values for each entry.
Test system: Japanese albino strain male rabbits
Experiment: Tear protein secretion promoting action of eye drops (Test Example 2)
Assay type: in vivo, rabbit
Conditions: 0.1 w/v % eye drops, 50 μl instilled into one eye; for 5 minutes from 5 to 10 min after instillation; vs basal concentration
Protocol: Using Japanese albino strain male rabbits, eye drops containing adrenergic β receptor agonists were examined for their actions to promote the tear protein secretion. […] Six rabbits (12 weeks old, weighing 2.0 to 2.5 kg) were used in each group. […] From the total amount of protein and that of secreted tears, the protein concentration in tears was calculated. […]
Where a name gives a salt, the structure may show the parent alone.
Supply the numeric figure in %, leaving out any unit text.

// solved cases for Rate of increase in tear protein concentration follow
CC(Cc1ccc(O)cc1)NCC(O)c1cc(O)cc(O)c1 (stereo not shown) [Fenoterol hydrobromide, fenoterol hydrobromide]	16
CC(CCc1ccc(O)cc1)NCCc1ccc(O)c(O)c1 (stereo not shown) [Dobutamine, dobutamine hydrochloride]	9
CC(C)(C)NCC(O)c1cc(Cl)c(N)c(Cl)c1 (stereo not shown) [Clenbuterol hydrochloride, clenbuterol hydrochloride]	16

Now, please, on to the next compound.
Sample CCC(NC(C)C)C(O)c1ccc(O)c2[nH]c(=O)ccc12 (stereo not shown) [Procaterol hydrochloride, procaterol hydrochloride] — what was its Rate of increase in tear protein concentration?
76
